Reported logD at 20 µM values for a set of compounds
Protocol: Lipophilicity, log D of the compound at 20 uM at pH 7.4 by HPLC-MS/MS analysis
Format: physicochemical
Assay context: buffer

Smiles record: C[C@@]1(O)CC[C@H]2[C@H](CC[C@@H]3[C@@H]2CC[C@]2(C)[C@@H](C(=O)Cn4ncnn4)CC[C@@H]32)C1
logD at 20 µM: 4.5
//
Smiles record: C[C@@]1(O)CC[C@H]2[C@H](CC[C@@H]3[C@@H]2CC[C@]2(C)[C@@H](C(=O)Cn4cc5ncccc5n4)CC[C@@H]32)C1
logD at 20 µM: 4.7
//
Smiles record: C[C@@]1(O)CC[C@H]2[C@@H](CC[C@@H]3[C@@H]2CC[C@]2(C)[C@@H](C(=O)Cn4ncnn4)CC[C@@H]32)C1
logD at 20 µM: 4.5
